Settings: buffer; pH 7.4; 200.0 µM
Tag: rule met if measured solubility kinetic is not below 5 µg/mL, rule not met if it is.

**Q:** Please indicate if the recorded solubility kinetic for CC(C)OC(=O)/C(=C\c1cccnc1)NC(=O)c1ccccc1 meets or exceeds 5 µg/mL.
**A:** rule met

**Q:** And what about the compound COc1cccc(OCCNc2ccc([N+](=O)[O-])cn2)c1 ?
**A:** rule not met

**Q:** And what about the compound Nc1nc(Nc2ccccc2F)nc(NC2CCCCC2)c1[N+](=O)[O-] ?
**A:** rule not met

**Q:** And what about the compound O=C(COC(=O)c1cccc(O)c1)NC(=O)Cc1ccccc1 ?
**A:** rule met

**Q:** And what about the compound Cc1ccc(C(=O)NCCCNC(=O)c2ccc(C)nc2)cc1 ?
**A:** rule met

**Q:** And what about the compound Cc1ccnc(NC(=O)CC(c2ccccc2)c2ccccc2)n1 ?
**A:** rule met

**Q:** And what about the compound Cc1ccccc1NC(=S)NC12CN3CN(CN(C3)C1)C2 ?
**A:** rule met

**Q:** And what about the compound Cc1ccc(NC(=O)c2cnc3ccccc3n2)cc1C ?
**A:** rule not met

**Q:** And what about the compound CNC(=O)/C(C#N)=C/c1c(N2CCCCCC2)nc2c(C)cccn2c1=O ?
**A:** rule met

**Q:** And what about the compound Cc1ccccc1NC(=O)NCCCCc1ccccc1 ?
**A:** rule not met

**Q:** And what about the compound Cc1ccc(NC(=O)Cc2ccccc2)cc1S(=O)(=O)N1CCOCC1 ?
**A:** rule met

**Q:** And what about the compound N#CSC(c1ccccc1)c1nc2ccccc2[nH]c1=O (configuration not stated) ?
**A:** rule met

**Q:** And what about the compound COC(=O)c1c(-c2ccccc2)c[nH]c1C ?
**A:** rule met

**Q:** And what about the compound O=C(O)c1ccccc1Nc1ccnc(Cl)n1 ?
**A:** rule met

**Q:** And what about the compound CC1CCCC(NC(=O)CN2C(=O)NC(C)(c3cc(F)ccc3F)C2=O)C1C (configuration not stated) ?
**A:** rule met

**Q:** And what about the compound Cc1cnc(=O)[nH]c1SCc1cccc([N+](=O)[O-])c1 ?
**A:** rule met

**Q:** And what about the compound CCCn1c(=O)c2c(nc3n2CCS3)n(C)c1=O ?
**A:** rule met

**Q:** And what about the compound Cc1ccc(NC(=O)NCCN2CCCCC2)cc1Cl ?
**A:** rule met

**Q:** And what about the compound Cc1cc(C(=O)NC(Cc2ccccc2)C(=O)O)c(C)o1 (configuration not stated) ?
**A:** rule met

**Q:** And what about the compound CN(C)Cc1cc(C(C)(C)C)cc(C(C)(C)C)c1O ?
**A:** rule not met

**Q:** And what about the compound O=C(O)CSc1nc2sc3c(c2c(=O)n1-c1ccccc1)CCC3 ?
**A:** rule met

**Q:** And what about the compound O.S=c1nc[nH]c2nc[nH]c12 ?
**A:** rule met
